Origin of measurements: paper PMC7566471

Molecular target: T1, wt^Sd (Scalloped 223–440), N-biotinylated-Avitagged (Drosophila melanogaster, UniProt P30052 223-440, biotin on the Avi-tag; acylated (incubated with myristoyl coenzyme A; purified as a mixture of acylated and non-acylated proteins))
T1 construct: Immobilised on SPR sensor chips by the biotinylated Avi-tag; also called Sd^223–440; source: E. coli BL21(DE3) with a BirA plasmid, purified (HisTrap, HRV 3C cleavage, Superdex 75); not shown: His6, N-terminal, cleaved; Avi-tag, N-terminal, kept
T1 sequence (looked up): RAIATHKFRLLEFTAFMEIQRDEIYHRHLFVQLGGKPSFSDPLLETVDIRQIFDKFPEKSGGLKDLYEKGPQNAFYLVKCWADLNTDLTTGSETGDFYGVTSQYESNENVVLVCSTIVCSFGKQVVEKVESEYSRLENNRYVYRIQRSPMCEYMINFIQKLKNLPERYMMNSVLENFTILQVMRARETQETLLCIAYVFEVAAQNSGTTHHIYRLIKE
Test: SPR; N-biotinylated-Avitagged Sd (wild type or mutant) immobilised on sensor chips; Yki or Vg fragment as analyte; Kd at equilibrium by a standard SPR method
Details: both partners purified
REPORTED METRIC: Kd (nM)
Respond numerically; units are nM and should not be typed.

So what does the record say about Kd for Yki^30–146 (domain or fragment, Drosophila melanogaster, UniProt Q45VV3 30-146, looked up, Yorkie (Yki), Drosophila melanogaster, UniProt Q45VV3, amino acids 30–146; also called Yorkie 30–146; source: E. coli (BL21(DE3) and NiCo21(DE3) are both named), purified (HisTrap, HRV 3C cleavage, Superdex 75); not shown: His-tag, N-terminal, cleaved; strep-tagII, N-terminal, cleaved; rubredoxin, N-terminal, cleaved) SNNLVVRVNQDTDDNLQALFDSVLNPGDAKRPLQLPLRMRKLPNSFFTPPAPSHSRANSADSTYDAGSQSSINIGNKASIVQQPDGQSPIAAIPQLQIQPSPQHSRLAIHHSRARSS ? 13
